Give measured MIC for each item. Keep answers brief.
The response must be a number in µg/mL with no trailing unit.

*Q* Lab note: St. pneumoniae 12288 assay, enter MIC for CC[C@H]1OC(=O)[C@H](C)C(=O)[C@H](C)[C@@H](O[C@@H]2O[C@H](C)C[C@H](N(C)C)[C@H]2O)[C@](C)(OC)C[C@@H](C)C(=O)[C@H](C)[C@H]2[C@H](SCCOc3ccccc3)C(=O)O[C@@]21C [Compound I-11] here
*A* 8

*Q* Lab note: St. pneumoniae 12288 assay, enter MIC for CC[C@H]1OC(=O)[C@H](C)C(=O)[C@H](C)[C@@H](O[C@@H]2O[C@H](C)C[C@H](N(C)C)[C@H]2O)[C@](C)(OC)C[C@@H](C)C(=O)[C@H](C)[C@H]2[C@H](SCCn3cc(C)c(=O)[nH]c3=O)C(=O)O[C@@]21C [Compound I-7] here
*A* 8
